Study Target: T1, EDIII-DV4 (Dengue virus serotype 4 (DV4), UniProt P09866 580-672)
T1 construct: also called EDIII of DV4; DV4 EDIII
T1 sequence (P09866 580-672 limits assumed): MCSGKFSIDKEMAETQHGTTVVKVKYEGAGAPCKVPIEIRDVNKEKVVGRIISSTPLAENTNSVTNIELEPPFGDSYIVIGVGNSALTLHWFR
Test Protocol: competition ELISA; affinity relative to 4E5A
Outcome Measure: REL AFFINITY

- Binder: "VH_Y106R (antibody, V domains shown, copies: 2 + 2) VH: VKLLEQSGAELVKPGASVRLSCTASGFNIKDTYMSWVKQRPEQGLEWIGRIDPENGDTKYDPKFQGKATITADTSSNTAYLHLSSLTSGDTAVYYCSRGWEGFARWGQGTLVTVSA VL: ELVMTQTPASLAVSLGQRATISCRASENVDKYGNSFMHWYQQKAGQPPKLLIYRASELQWGIPARFSGSGSRTDFTLTINPVEADDVATYFCQRSNEVPWTFGGGTKLEIK"
  Measured: 0.46
